System: IPOHE
experimental-details: Post-emergence Test, glasshouse, IPOHE
Format: in vivo
particulars: 250 g/ha, evaluated after 13 days
property-measured: percentage damage caused to the plant, five-point scale, IPOHE

Worked set:
FC(F)(F)CCCn1nc(Cl)c2ccc(Br)c(Oc3ncc(Cl)cn3)c21 :: 1 (1=0-20%)
CCCn1nc(Cl)c2cccc(Oc3ncc(Cl)cn3)c21 :: 2 (2=21-40%)
COc1cc(Oc2cccc3nnn(CCCC(F)(F)F)c23)ncn1 :: 1 (1=0-20%)
FC(F)(F)CCCn1ncc2c(Br)ccc(Oc3ncc(Cl)cn3)c21 :: 1 (1=0-20%)

Qu. Returns the measured percentage damage caused to the plant, five-point scale, IPOHE for the input molecule. Input: C=C(C)Cn1nc(Cl)c2cccc(Oc3ncc(Cl)cn3)c21
Ans. 1 (1=0-20%)

Qu. I would be grateful if you could share the reported percentage damage caused to the plant, five-point scale, IPOHE for CCCCCn1nc(Cl)c2cccc(Oc3ncc(Cl)cn3)c21 .
Ans. 2 (2=21-40%)

Qu. Request the reported percentage damage caused to the plant, five-point scale, IPOHE associated with FC(F)(F)CCCn1nnc2cccc(Oc3ncc(Cl)cn3)c21
Ans. 2 (2=21-40%)

Qu. // query percentage damage caused to the plant, five-point scale, IPOHE value for entry FC(F)(F)CCCn1nc(Cl)c2c(Cl)c(Br)cc(Oc3ncc(Cl)cn3)c21
Ans. 1 (1=0-20%)

Qu. So what does the record say about percentage damage caused to the plant, five-point scale, IPOHE for FC(F)(F)CCCn1nnc2c(Cl)ccc(Oc3ncc(Cl)cn3)c21 ?
Ans. 3 (3=41-60%)

Data origin: patent US20230002357A1
